Assay: Selectivity index, ratio of IC50 for African green monkey Vero cells to MIC90 for Mycobacterium tuberculosis H37Rv
Format: toxicity
Details: read-out: Selectivity Index
measurement-label: selectivity ratio

Worked cases, answers included:
COc1cccc2[nH]c3cc(OCc4ccccc4)c(C)cc3c12; > 5.4
C=CC(C)(C)c1ccc2[nH]c3ccccc3c2c1; > 4.5
Cc1cc2c(cc1OCc1ccccc1)[nH]c1c(O)cccc12; 2.9

# input Would you kindly share the measured selectivity ratio for `CC(C)=CC(=O)Oc1ccc2c(c1)[nH]c1c(OS(=O)(=O)c3ccc(C)cc3)cc(C)cc12` ?
# output > 8.1

# input Given the entry `NNC(=O)c1ccncc1` , report its measured selectivity ratio.
# output > 208

# input Any idea what selectivity ratio was measured for `COC(=O)c1cc2c([nH]c3ccccc32)c(-c2cn(S(=O)(=O)c3ccccc3)c3ccccc23)c1O` ?
# output > 17.2

# input Requested field: selectivity ratio. Item: `COc1ccc2c([nH]c3cc(O)c(C)cc32)c1CC=C(C)C`
# output > 4.2

###

Assay: Selectivity index, ratio of IC50 for African green monkey Vero cells to MIC90 for Mycobacterium tuberculosis H37Rv
Format: toxicity
Conditions: read-out: Selectivity Index
// values below are reported selectivity ratio

O=Cc1cc2c(cc1O)[nH]c1c(O)cccc12; > 13

# input For `CO[C@H]1/C=C/O[C@@]2(C)Oc3c(C)c(O)c4c(O)c(c(/C=N/N5CCN(C)CC5)c(O)c4c3C2=O)NC(=O)/C(C)=C\C=C\[C@H](C)[C@H](O)[C@@H](C)[C@@H](O)[C@@H](C)[C@H](OC(C)=O)[C@@H]1C` , what is its reported selectivity ratio?
# output > 2500

# input Need selectivity ratio, item `CC(C)=CCc1c(O)c(C)cc2c1[nH]c1ccccc12`
# output > 4.5

# input Find the recorded selectivity ratio belonging to `COc1ccc2c(c1)[nH]c1c(Cc3ccccc3)c(O)c(C=O)cc12` and report it.
# output 5.1

# input What value of selectivity ratio has been reported for the following compound? `CCCCCCCc1c(C)c(OC)c(OC)c2c1[nH]c1ccccc12`
# output > 8.1

# input Dear colleague, I am looking for the recorded selectivity ratio of the following compound: `COC1=C(C)C(=O)c2[nH]c3ccccc3c2C1=O`
# output > 12.5

# input Tell me the measured selectivity ratio of `COc1ccc2c([nH]c3cc(O)c(C=O)cc32)c1C=O` , please.
# output 16.8

# input What does the data say about its selectivity ratio? Entry: `COc1ccc2[nH]c3c(O)cc(C=O)cc3c2c1`
# output > 7.2

# input Recorded selectivity ratio of `COc1ccc2[nH]c3cc(O)c(C)cc3c2c1` , please.
# output > 33

Entry source: ChEMBL document CHEMBL4043063
